tested on: RARg:RXRa (NR concentration 270 nM, RXRa partner concentration 90 nM); test: PBM binding z-score (relative to random genomic background probes); higher = stronger binding; sequences stand for … in GC…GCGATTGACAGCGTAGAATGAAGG
recorded endpoint: PBM binding z-score
Answers are plain numbers.

1. CCGAGTAGGTTACGAGTGGGCATTCAGTGCGAAT : 0.298

// each listed sequence needs a value for PBM binding z-score
1. CCTTACGGGTCACGGGGTTATAGCACGACGAGCG
2. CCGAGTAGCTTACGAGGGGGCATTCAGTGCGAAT
3. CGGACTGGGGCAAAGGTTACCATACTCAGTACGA
4. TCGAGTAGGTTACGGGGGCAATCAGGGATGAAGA
5. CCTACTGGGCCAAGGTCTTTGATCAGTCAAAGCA
6. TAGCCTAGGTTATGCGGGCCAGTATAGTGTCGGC
7. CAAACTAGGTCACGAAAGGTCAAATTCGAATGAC
8. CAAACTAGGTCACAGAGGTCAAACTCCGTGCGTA

1. 6.74
2. 1.05
3. 3.75
4. 3.25
5. -0.131
6. -0.108
7. 7.7
8. 7.7

Report PBM binding z-score for each item below.
1. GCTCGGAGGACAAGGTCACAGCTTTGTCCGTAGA
2. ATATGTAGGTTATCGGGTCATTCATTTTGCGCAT
3. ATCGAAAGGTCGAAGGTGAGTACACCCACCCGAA

1: 4.76; 2: 3.28; 3: 4.39

###

test system: RARb:RXRa (NR concentration 270 nM, RXRa partner concentration 90 nM); assay: PBM binding z-score (relative to random genomic background probes); higher = stronger binding; sequences stand for … in GC…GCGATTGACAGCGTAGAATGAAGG
Provide the recorded PBM binding z-score for the entries that follow.

// below: answered sequences
1. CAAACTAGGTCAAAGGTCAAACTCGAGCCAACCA : 5.81
2. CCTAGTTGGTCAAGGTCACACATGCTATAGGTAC : 4.14
3. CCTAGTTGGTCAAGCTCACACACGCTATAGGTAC : 1.14
4. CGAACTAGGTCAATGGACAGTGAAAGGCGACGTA : 3.51
5. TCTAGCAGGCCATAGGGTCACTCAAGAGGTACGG : 2.75
6. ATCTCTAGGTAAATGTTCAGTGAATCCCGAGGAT : 0.211
7. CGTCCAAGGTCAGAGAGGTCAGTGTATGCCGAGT : 5.16
8. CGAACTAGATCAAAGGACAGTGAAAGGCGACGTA : 0.915

Batch lookup, PBM binding z-score per entry.
1. CAAACCAGGTCACGAAAGGTCAAAGTCGAATGAC
2. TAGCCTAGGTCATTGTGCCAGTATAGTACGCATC
3. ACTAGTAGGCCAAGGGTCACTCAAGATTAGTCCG
4. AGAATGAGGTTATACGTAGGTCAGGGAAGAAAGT

[5.74, 3.44, 3.61, 3.19]

###

tested on: LXRa homodimer (NR concentration 270 nM); assay: PBM binding z-score (relative to random genomic background probes); higher = stronger binding; sequences stand for … in GC…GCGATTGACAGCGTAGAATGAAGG
Cut-off 2 on PBM binding z-score, inclusive. At or above means t; below means f.

Given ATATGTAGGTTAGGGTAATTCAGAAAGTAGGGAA , state whether its PBM binding z-score is at least 2. f

How about this sequence: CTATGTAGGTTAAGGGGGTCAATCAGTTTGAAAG f
